- measuredTarget: PDE1B (Homo sapiens, UniProt Q01064)
- Sequence (Q01064 whole entry): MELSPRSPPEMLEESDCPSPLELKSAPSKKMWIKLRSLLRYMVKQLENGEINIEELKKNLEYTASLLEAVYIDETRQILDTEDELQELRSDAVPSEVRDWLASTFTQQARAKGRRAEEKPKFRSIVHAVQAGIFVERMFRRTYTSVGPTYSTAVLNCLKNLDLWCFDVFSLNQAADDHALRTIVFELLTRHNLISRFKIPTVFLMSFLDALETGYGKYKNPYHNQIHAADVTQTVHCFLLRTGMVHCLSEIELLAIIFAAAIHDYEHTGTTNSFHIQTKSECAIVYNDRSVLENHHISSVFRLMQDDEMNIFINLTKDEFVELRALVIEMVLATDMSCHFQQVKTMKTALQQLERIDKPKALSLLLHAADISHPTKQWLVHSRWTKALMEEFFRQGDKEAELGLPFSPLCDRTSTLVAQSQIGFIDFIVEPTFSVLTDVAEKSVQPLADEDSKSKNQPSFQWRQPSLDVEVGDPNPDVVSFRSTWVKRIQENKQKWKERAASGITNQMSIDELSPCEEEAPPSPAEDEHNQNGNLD
- experimentalDetails: PDE1 inhibition assay (SPA), PDE1B
- Assay type: biochemical
- runConditions: 15 nM tritium labelled cAMP, 1 h at room temperature, SPA beads
# IC50 per entry
readoutName: IC50 (nM)

INSERT INTO results (compound, unit, measurement) VALUES
  ('COc1ccc2c(N[C@@H]3CCO[C@H]3C3CC3)ncnc2c1OC (relative stereo)', 'nM', 260),
  ('COc1ccc2c(NC3CCOC3C3CC3)ncnc2c1OC (centres unmarked)', 'nM', 260);

====

- measuredTarget: PDE1C (Homo sapiens)
- Sequence (Q14123 whole entry): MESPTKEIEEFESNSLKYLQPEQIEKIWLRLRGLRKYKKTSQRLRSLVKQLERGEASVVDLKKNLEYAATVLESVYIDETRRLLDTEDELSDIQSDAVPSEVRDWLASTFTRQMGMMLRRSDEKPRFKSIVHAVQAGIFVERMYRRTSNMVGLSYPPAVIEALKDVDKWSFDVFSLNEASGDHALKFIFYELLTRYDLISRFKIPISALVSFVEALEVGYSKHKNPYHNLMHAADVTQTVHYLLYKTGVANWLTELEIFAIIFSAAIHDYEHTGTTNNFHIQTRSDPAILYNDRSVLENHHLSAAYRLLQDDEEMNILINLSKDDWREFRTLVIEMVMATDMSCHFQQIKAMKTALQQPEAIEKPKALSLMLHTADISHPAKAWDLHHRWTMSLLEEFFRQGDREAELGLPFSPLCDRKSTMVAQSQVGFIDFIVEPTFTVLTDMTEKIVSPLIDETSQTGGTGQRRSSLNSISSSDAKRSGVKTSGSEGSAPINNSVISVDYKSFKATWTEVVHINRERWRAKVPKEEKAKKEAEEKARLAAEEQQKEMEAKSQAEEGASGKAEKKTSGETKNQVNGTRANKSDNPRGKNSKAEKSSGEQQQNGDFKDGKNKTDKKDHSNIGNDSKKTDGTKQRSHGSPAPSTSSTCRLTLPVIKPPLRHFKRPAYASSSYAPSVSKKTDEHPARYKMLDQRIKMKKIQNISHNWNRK
- experimentalDetails: PDE1 inhibition assay (SPA), PDE1C
- Type: biochemical
- runConditions: 15 nM tritium labelled cAMP, 1 h at room temperature, SPA beads
pIC50: −log10 of the molar value.
readoutName: pIC50

INSERT INTO assay_data (compound, measurement) VALUES
  ('COc1ccc2c(NC3CCOC3C3CC3)ncnc2c1OC (stereo not shown)', 5.89);
